- test: gradient 5% acetonitrile 3 min, to 50% in 2 min, to 85% in 15 min, held 3 min, 100 µL/min
- assay_context: column: Zorbax Extend-C18 2.1 x 50 mm; eluents: water / acetonitrile, 0.1% formic acid
parameter: RP-LC retention time (s)

O=C(Nc1ccc(N2CCCN(C(=O)C3CC3)CC2)cc1)c1cncc(Br)c1: 701
CCc1nc(-c2csc(S(=O)(=O)N3CCCC(C(=O)NC4CCCCCC4)C3)c2)no1 (stereo unspecified): 1060
CCCN(CC1CCOC1)C(=O)Nc1c(C)cccc1C (stereo unspecified): 791
COc1ccc(-n2nc3c(N4CCCC(C(=O)NCCCc5ccccc5)C4)nnc(C)c3c2C)cc1 (stereo unspecified): 777
Cc1ccccc1-c1nn2c(CSc3ccccc3)nnc2s1: 1030
COc1cccc(-c2nc(-c3ccc4c(c3)oc(=O)n4C(C)C)no2)c1OC: 1140
CCc1ccc(N2CC(c3noc(-c4ccco4)n3)CC2=O)cc1 (stereo unspecified): 921
Cc1ccccc1NC(=O)N1CC(Cc2nncn2C(C)C)C1: 616
COC(=O)C(Cc1ccccc1)NC(=O)N1CCCn2nc(-c3cccnc3)cc2C1 (stereo unspecified): 616
CCCNC(=O)C1CCN(c2ccc(SCC(=O)Nc3cc(Cl)ccc3C)nn2)CC1: 690
Cn1c(=O)sc2cc(S(=O)(=O)N3CCC(C(=O)NCc4ccccc4Cl)CC3)ccc21: 883
O=C(O)c1cc(N2CCN(CC(=O)N3CCCCCC3)CC2)ccc1NC(=O)C1CCC1: 636
O=C(CCCc1nc2cccnc2n1Cc1ccccc1)N1CCN(c2ccccn2)CC1: 603
CNCc1ccc(-c2ccc(Cl)cc2Cl)o1: 658
N#Cc1ccsc1NC(=O)c1cccc(Oc2ccccc2)c1: 988
CCCCOc1ccc(CNC(=O)C2CCN(Cc3cn(C)c4ccc(OC)cc34)CC2)cc1: 804
COc1ccc(-c2oc3ccc(OC)cc3c2C(=O)O)cc1: 879
COC(=O)c1sccc1NC(=O)N1CCCn2nc(-c3cccs3)cc2C1: 984
Cc1ccc(NC(=O)N2CCC(N3CCN(Cc4ccc(F)cc4)C(=O)C3=O)CC2)cc1Cl: 831
O=C(CCC[C@@H]1[C@H]2CCCN3CCC[C@@H](CN1C(=O)c1cccs1)[C@@H]23)NCC1CC1: 586
CN(C)S(=O)(=O)c1ccc(-c2nnc(C(=O)NCc3ccc4c(c3)OCO4)o2)cc1: 814
